- test-target: CDK4 (Homo sapiens, UniProt P11802+Q16531)
- Sequence (P11802 2-303 limits assumed): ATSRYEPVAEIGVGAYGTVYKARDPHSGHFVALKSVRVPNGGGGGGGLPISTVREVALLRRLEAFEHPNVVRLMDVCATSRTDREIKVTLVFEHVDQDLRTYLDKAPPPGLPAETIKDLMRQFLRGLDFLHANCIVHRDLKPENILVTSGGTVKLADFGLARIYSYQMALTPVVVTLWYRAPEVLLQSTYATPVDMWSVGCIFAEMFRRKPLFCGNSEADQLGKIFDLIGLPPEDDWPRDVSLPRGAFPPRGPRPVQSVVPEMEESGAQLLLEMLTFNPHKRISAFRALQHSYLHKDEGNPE
- Sequence (P24385 whole entry partner): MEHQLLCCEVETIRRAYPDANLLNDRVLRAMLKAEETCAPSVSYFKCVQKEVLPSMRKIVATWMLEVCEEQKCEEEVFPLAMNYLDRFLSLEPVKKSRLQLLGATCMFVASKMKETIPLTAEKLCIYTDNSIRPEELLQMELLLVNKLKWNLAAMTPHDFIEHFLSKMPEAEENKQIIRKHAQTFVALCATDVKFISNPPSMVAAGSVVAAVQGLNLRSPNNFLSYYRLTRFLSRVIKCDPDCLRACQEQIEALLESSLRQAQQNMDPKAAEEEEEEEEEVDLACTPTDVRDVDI
- Sequence (Q16531 2-1140 limits assumed): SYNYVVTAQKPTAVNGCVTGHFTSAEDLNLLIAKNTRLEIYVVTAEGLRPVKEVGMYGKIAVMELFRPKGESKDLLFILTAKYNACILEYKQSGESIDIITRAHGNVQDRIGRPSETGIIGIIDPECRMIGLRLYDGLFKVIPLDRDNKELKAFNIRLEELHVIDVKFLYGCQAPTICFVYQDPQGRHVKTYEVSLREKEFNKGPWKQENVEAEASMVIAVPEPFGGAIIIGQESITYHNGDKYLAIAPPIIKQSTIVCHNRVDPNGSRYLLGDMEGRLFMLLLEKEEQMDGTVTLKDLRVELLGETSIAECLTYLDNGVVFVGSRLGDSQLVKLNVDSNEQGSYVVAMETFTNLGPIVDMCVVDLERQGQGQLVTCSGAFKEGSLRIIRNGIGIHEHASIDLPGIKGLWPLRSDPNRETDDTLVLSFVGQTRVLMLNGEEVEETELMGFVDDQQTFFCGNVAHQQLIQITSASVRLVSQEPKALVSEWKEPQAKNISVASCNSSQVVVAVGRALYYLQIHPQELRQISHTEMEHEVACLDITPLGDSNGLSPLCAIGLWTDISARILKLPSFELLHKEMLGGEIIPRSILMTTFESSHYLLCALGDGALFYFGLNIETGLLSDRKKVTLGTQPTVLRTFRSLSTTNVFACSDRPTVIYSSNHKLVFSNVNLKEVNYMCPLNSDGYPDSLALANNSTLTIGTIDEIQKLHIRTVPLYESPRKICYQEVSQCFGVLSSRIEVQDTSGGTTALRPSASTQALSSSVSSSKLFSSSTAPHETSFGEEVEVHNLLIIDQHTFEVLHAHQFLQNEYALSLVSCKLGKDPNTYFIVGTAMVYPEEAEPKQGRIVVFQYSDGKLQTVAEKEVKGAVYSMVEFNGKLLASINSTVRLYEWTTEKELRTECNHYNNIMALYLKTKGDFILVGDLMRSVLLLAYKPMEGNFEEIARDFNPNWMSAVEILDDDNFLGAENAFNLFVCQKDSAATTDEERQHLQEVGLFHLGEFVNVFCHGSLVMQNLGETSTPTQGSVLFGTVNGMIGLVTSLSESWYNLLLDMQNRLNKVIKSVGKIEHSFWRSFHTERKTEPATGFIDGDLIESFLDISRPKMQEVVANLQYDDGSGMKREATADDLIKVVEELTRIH
- assay-text: CDK4 percentage degradation in Calu-1 cells (Table 6)
- Assay type: cell-based
- Set-up: Cells that express cyclin D1-3 and CDK4/6 proteins were treated with heterobifunctional compounds; endogenous in cells; host or cells: Calu-1
- assay-conditions: 200 nM, 16 hours
The entries below come with measured inhibition at 0.2 µM values attached.

Recorded inhibition at 0.2 µM, per entry:
[[record]]
molecule = "CC(=O)c1c(C)c2cnc(Nc3ccc(N4CCN(C(C)C(=O)NC5CC(Nc6nc(NC(C)C)ccc6C(=O)Nc6ccc(N(C)C)nn6)C5)CC4)cn3)nc2n(C2CCCC2)c1=O (centres unmarked)"
measured_endpoint = "inhibition at 0.2 µM"
result = "< 30%"

[[record]]
molecule = "CNc1ccc(C(=O)Nc2nc(C3CC3)ccc2F)c(NC2CC3(CC(NC(=O)CN4CCN(c5ccc(Nc6ncc7c(C)c(C(C)=O)c(=O)n(C8CCCC8)c7n6)nc5)CC4)C3)C2)n1 (centres unmarked)"
measured_endpoint = "inhibition at 0.2 µM"
result = "< 30%"


Which inhibition at 0.2 µM is reported for this molecule? CNc1ccc(C(=O)Nc2ccc(N(C)C)nn2)c(NC2CC(CCNC(=O)CN3CCN(c4ccc(Nc5ncc6c(C)c(C(C)=O)c(=O)n(C7CCCC7)c6n5)nc4)CC3)C2)n1 (centres unmarked)
> 80%

Which inhibition at 0.2 µM is reported for this molecule? "[2H]C([2H])([2H])Nc1ccc(C(=O)Nc2cc(C)n(C)n2)c(NC2CCN(C(=O)CN3CCN(c4ccc(Nc5ncc6c(C)c(C(C)=O)c(=O)n(C7CCCC7)c6n5)nc4)CC3)CC2)n1"
30 to 50%

Which inhibition at 0.2 µM is reported for this molecule? "CNc1ccc(C(=O)Nc2cccc(C3CC3)n2)c(NC2CC3(C2)CN(C(=O)CCN2CCN(c4ccc(Nc5ncc6c(C)c(C(C)=O)c(=O)n(C7CCCC7)c6n5)nc4)CC2)C3)n1"
> 80%

Which inhibition at 0.2 µM is reported for this molecule? "CNc1ccc(C(=O)Nc2nc(C3CC3)c(C)s2)c(NCCCCCNC(=O)CN2CCN(c3ccc(Nc4ncc5c(C)c(C(C)=O)c(=O)n(C6CCCC6)c5n4)nc3)CC2)n1"
50 to 80%

Which inhibition at 0.2 µM is reported for this molecule? CNc1ccc(C(=O)Nc2ccc(N(C)C)nn2)c(NCCC2CC(NC(=O)CN3CCN(c4ccc(Nc5ncc6c(C)c(C(C)=O)c(=O)n(C7CCCC7)c6n5)nc4)CC3)C2)n1 (centres unmarked)
50 to 80%

Which inhibition at 0.2 µM is reported for this molecule? CNc1ccc(C(=O)Nc2cc(C)n(C(C)C)n2)c(NC2CC3(CC(NC(=O)CN4CCN(c5ccc(Nc6ncc7c(C)c(C(C)=O)c(=O)n(C8CCCC8)c7n6)nc5)CC4)C3)C2)n1 (centres unmarked)
50 to 80%

Which inhibition at 0.2 µM is reported for this molecule? "CNc1ccc(C(=O)Nc2ccc(N(C)C)nn2)c(NCCCCCCCNC(=O)CN2CCN(c3ccc(N(C)c4ncc5c(C)c(C(C)=O)c(=O)n(C6CCCC6)c5n4)nc3)CC2)n1"
50 to 80%

Which inhibition at 0.2 µM is reported for this molecule? CNc1ccc(C(=O)Nc2ccc(N(C)C)nn2)c(NC2CC(CC(=O)NCCN3CCN(c4ccc(Nc5ncc6c(C)c(C(C)=O)c(=O)n(C7CCCC7)c6n5)nc4)CC3)C2)n1 (centres unmarked)
> 80%

Which inhibition at 0.2 µM is reported for this molecule? CNc1ccc(C(=O)Nc2cccc(=O)[nH]2)c(NC2CC3(CC(NC(=O)CN4CCN(c5ccc(Nc6ncc7c(C)c(C(C)=O)c(=O)n(C8CCCC8)c7n6)nc5)CC4)C3)C2)n1 (centres unmarked)
50 to 80%
